# assay: Volume of distribution at steady state in Wistar rat at 1 mg/kg, iv
# Assay type: ADME, organism-based
# Set-up: dose 1 mg/kg, route intravenous
# condition-info: in vivo, read-out: Vdss
Quick reference for Vd among some compounds
Answer with the figure and its unit, nothing else.

Example results:
smiles-representation: Cc1c(F)cc(C(=O)NC2CC2)cc1-c1ccn2c(C(C)(C)C)nnc2c1
Vd: 1.3 L/kg
//
smiles-representation: Cc1c(F)cc(C(=O)NC2CC2)cc1-c1c(F)cn2c(C(C)(C)C)nnc2c1F
Vd: 0.57 L/kg

We now examine a further compound.
Req: Please list Vd recorded for the compound "Cc1ccc(C(=O)NC2CC2)cc1-c1ccn2c(C(C)(C)C)nnc2c1"
Resp: 2 L/kg

----------
# assay: AUC in beagle dog at 1 mg/kg, iv
# Assay type: ADME, organism-based, Canis lupus familiaris
# Set-up: dose 1 mg/kg, route intravenous
# condition-info: plasma
measurement-label: AUC (ng·h/mL)
Respond with the bare value in ng·h/mL.

smiles-representation: Cc1c(F)cc(C(=O)NC2CC2)cc1-c1c(F)cn2c(C(C)(C)C)nnc2c1F
AUC [ng·h/mL]: 6440

smiles-representation: Cc1ccc(C(=O)NC2CC2)cc1-c1ccn2c(C(C)(C)C)nnc2c1
AUC [ng·h/mL]: 1690

We now examine a further compound.
Req: Please list AUC recorded for the compound "Cc1c(F)cc(C(=O)NC2CC2)cc1-c1ccn2c(C(C)(C)C)nnc2c1"
Resp: 2770

----------
# assay: Oral bioavailability in beagle dog at 1 mg/kg
# Assay type: ADME, organism-based, Canis lupus familiaris
# condition-info: in vivo
measurement-label: bioavailability (%)
Respond with the bare value in %.

smiles-representation: Cc1c(F)cc(C(=O)NC2CC2)cc1-c1c(F)cn2c(C(C)(C)C)nnc2c1F
bioavailability, %: 79

We now examine a further compound.
Req: Please list bioavailability recorded for the compound "Cc1ccc(C(=O)NC2CC2)cc1-c1ccn2c(C(C)(C)C)nnc2c1"
Resp: 75
